Listing of entries alongside the reported ELISA_avg.
- TARGET: HER2 (Homo sapiens (Human), UniProt P04626 23-652)
- RUN DESCRIPTION: phage ELISA, A450 target/A450 IgG1-Fc
// return numeric value only (unit: ratio, not printed)

{"BINDER": "SEQ ID NO 944 (designed binder) MGSWWEFNIRLHAIDYRLKALGGSEAELAAFEKEIAAFESELQAYKGKGNPEVELLREKAAQIRAQLQAYRHN", "METRIC NAME": "ELISA_avg", "ENDPOINT VALUE": 9.75}
{"BINDER": "SEQ ID NO 931 (designed binder) MGSWFEFEIRLRAIEYRLSALGGSEAELAAFEKEIAAFESELQAYKGKGNPEVEKLRELAAEIRYALQAYRHN", "METRIC NAME": "ELISA_avg", "ENDPOINT VALUE": 7.75}
{"BINDER": "SEQ ID NO 921 (designed binder) MGSWHEFLRRLLAIEMRLYALGGSEAELAAFEKEIAAFESELQAYKGKGNPEVEHLRVRAASIRQMLQAYRHN", "METRIC NAME": "ELISA_avg", "ENDPOINT VALUE": 8.15}
{"BINDER": "SEQ ID NO 947 (designed binder) MGSWWEFRIRLEAIWYRLHALGGSEAELAAFEKEIAAFESELQAYKGKGNPEVEDLRIFAANIRSKLQAYRHN", "METRIC NAME": "ELISA_avg", "ENDPOINT VALUE": 8.04}
{"BINDER": "SEQ ID NO 939 (designed binder) MGSWWEFHVRLRAIEYRLEALGGSEAELAAFEKEIAAFESELQAYKGKGNPEVEQLRLIAANIRHLLQAYRHN", "METRIC NAME": "ELISA_avg", "ENDPOINT VALUE": 5.48}
{"BINDER": "SEQ ID NO 940 (designed binder) MGSWWEFHVRLKAIEYRLLALGGSEAELAAFEKEIAAFESELQAYKGKGNPEVEDLRYIAANIRQLLQAYRHN", "METRIC NAME": "ELISA_avg", "ENDPOINT VALUE": 4.56}
{"BINDER": "SEQ ID NO 936 (designed binder) MGSWVEFWIRLNAIKYRLLALGGSEAELAAFEKEIAAFESELQAYKGKGNPEVEKLRQDAADIRELLQAYRHN", "METRIC NAME": "ELISA_avg", "ENDPOINT VALUE": 10.6}
{"BINDER": "SEQ ID NO 923 (designed binder) MGSWVNFKTHLARIKVHLEALGGSEAELALFEHDIANFEQVLQQYKGKGNPEVEALRKEAAAIRDELQAYRHN", "METRIC NAME": "ELISA_avg", "ENDPOINT VALUE": 7.91}

Query string: Entry SEQ ID NO 926 (designed binder) MGSWWEFKVRLSAIQYRLYALGGSEAELAAFEKEIAAFESELQAYKGKGNPEVEALREQAALIRTILQAYRHN : reported ELISA_avg = ?
Result string: 5.17

Query string: If you can, please state the reported ELISA_avg value of SEQ ID NO 943 (designed binder) MGSWWEFQVRLSAIEYRLTALGGSEAELAAFEKEIAAFESELQAYKGKGNPEVEELRQKAARIRSLLQAYRHN .
Result string: 9.61

Query string: Which measured ELISA_avg value corresponds to SEQ ID NO 933 (designed binder) MGSWWEFKVRLRAIEYRLSALGGSEAELAAFEKEIAAFESELQAYKGKGNPEVEELRVLAASIRIHLQAYRHN ?
Result string: 10.1

Query string: For SEQ ID NO 945 (designed binder) MGSWWEFRVRLEAIDYRLKALGGSEAELAAFEKEIAAFESELQAYKGKGNPEVEYLRMKAATIRAILQAYRHN , what is its reported ELISA_avg?
Result string: 6.82

Query string: Query: ELISA_avg; subject: SEQ ID NO 938 (designed binder) MGSWWEFYLRLRAISYRLQALGGSEAELAAFEKEIAAFESELQAYKGKGNPEVEGLRQDAAEIRKLLQAYRHN
Result string: 5.1

Query string: Form field: reported ELISA_avg of SEQ ID NO 927 (designed binder) MGSWWEFHIRLHAINYRLAALGGSEAELAAFEKEIAAFESELQAYKGKGNPEVEALRELAAKIRGDLQAYRHN
Result string: 11.9

Query string: Fill in the blank: the reported ELISA_avg of SEQ ID NO 948 (designed binder) MGSWWEFNVRLQAIKYRLSALGGSEAELAAFEKEIAAFESELQAYKGKGNPEVEDLRKTAAHIRWQLQAYRHN is ____.
Result string: 5.23

Query string: Recorded ELISA_avg of SEQ ID NO 949 (designed binder) MGSWWEFNVRLSAIRYRLLALGGSEAELAAFEKEIAAFESELQAYKGKGNPEVEDLRASAAQIRAMLQAYRHN , please.
Result string: 6.73

Query string: Param item = SEQ ID NO 925 (designed binder) MGSWKTFKIELAGIKLELEALGGSEAELAGFENAIAQFESSLQYYKGKGNPEVEALRKEAAAIRDELQAYRHN ; retrieve measured ELISA_avg.
Result string: 4.95

Query string: Would you mind telling me what ELISA_avg value was observed for SEQ ID NO 946 (designed binder) MGSWYEFDIRLEAIKYRLSALGGSEAELAAFEKEIAAFESELQAYKGKGNPEVEYLRKKAAVIRSMLQAYRHN ?
Result string: 5.35

Just for reference, patent US20230125550A1 is where these values come from.
